Would you mind telling me the reported pKd of each entry?
system: T1, c-Met expressed on the surface of human A549 lung carcinoma cells (human, UniProt P08581 25-1390)
T1 construct: whole, on cells; Used for all assays on cells that carry human c-Met (A549, HepG2, S114); also called human c-Met; c-Met in A549 cells
T1 sequence (P08581 25-1390): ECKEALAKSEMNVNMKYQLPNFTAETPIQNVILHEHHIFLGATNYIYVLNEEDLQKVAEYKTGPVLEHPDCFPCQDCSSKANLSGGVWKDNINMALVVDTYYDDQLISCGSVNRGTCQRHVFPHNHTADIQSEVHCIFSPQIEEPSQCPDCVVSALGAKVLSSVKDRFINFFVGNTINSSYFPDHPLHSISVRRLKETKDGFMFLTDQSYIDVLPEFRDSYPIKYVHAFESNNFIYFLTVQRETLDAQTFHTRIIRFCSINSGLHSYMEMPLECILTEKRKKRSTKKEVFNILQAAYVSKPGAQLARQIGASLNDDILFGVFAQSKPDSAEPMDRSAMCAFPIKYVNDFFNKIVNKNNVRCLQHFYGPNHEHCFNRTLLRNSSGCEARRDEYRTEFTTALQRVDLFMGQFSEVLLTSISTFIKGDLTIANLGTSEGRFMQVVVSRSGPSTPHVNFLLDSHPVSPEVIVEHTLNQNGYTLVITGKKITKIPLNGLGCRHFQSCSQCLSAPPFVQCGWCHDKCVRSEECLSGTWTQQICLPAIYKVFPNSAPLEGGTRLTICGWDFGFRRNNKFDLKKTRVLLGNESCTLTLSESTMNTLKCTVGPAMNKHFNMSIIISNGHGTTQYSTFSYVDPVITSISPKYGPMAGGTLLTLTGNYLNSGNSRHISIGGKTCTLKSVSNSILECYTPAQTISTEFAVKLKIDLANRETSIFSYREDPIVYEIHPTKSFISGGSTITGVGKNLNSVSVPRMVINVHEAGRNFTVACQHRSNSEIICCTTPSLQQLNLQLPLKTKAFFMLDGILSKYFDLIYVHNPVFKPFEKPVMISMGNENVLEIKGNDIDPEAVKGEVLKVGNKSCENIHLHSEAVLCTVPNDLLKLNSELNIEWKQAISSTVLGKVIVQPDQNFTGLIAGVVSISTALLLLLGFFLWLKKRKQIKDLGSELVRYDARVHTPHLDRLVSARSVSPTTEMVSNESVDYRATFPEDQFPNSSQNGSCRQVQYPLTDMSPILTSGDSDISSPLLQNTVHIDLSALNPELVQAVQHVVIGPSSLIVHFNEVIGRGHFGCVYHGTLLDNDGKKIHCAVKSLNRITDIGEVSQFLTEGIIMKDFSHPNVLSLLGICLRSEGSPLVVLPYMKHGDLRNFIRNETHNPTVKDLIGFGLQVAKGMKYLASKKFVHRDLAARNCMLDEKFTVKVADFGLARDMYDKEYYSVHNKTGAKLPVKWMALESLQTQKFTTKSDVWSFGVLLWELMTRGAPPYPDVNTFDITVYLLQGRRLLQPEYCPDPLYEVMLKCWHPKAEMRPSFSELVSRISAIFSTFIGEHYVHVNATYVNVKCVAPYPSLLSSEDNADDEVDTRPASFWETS
measurement.notes: flow cytometry on human A549 cells, half-maximal binding at equilibrium
On this scale, pKd is minus log10 of a concentration expressed in M (mol/L).

I have this binder here, anti-c-Met monoclonal antibody 13.3.2L-A91T, H-E42K, S97T (antibody, human IgG2, kappa, V domains shown, positions 42, 97, 14 and 91 count from the N-terminal amino acid and may not count on the entry with its leader) VH: QVQLVQSGAEVKKPGASVKVSCKASGYTFTSYGFSWVRQAPGQGLEWMGWISASNGNTYYAQKLQGRVTMTTDTSTSTAYMELRSLRSDDTAVYYCARVYADYADYWGQGTLVTVSS VL: DIQMTQSPSSVSASVGDRVTITCRASQGINTWLAWYQQKPGKAPKLLIYAASSLKSGVPSRFSGSGSGTDFTLTISSLQPEDFATYYCQQANSFPLTFGGGTKVEIKR , and I need its recorded pKd.
10.25

Also anti-c-Met monoclonal antibody 9.1.2 (antibody, V domains shown, Human IgG2 kappa; also called hybridoma 9.1.2 (LN 15884); PTA-5027) VH: QVQLQESGPGLVKPSQTLSLTCTVSGGSISSGGYYWSWIRQHPGKGLEWIGYIYYSGSTYYNPSLKSRVTISVDTSKNQFSLKLSSVTAADTAVYYCARDGPLGYCSSTSCPVTGEYYYYGMDVWGQGTTVTVSS VL: EIVLTQSPGTLSLSPGERATLSCRASQSVSNNYLAWYQQKPGQAPRLLIFGASSRATGIPDRFSGSGSGTDFTLTISRLEPEDFAVYYCQQYDISPMYSFGQGTKLEMKR ?
9.77

What do you have for anti-c-Met monoclonal antibody 13.3.2 (antibody, human IgG2, kappa, V domains shown, Human IgG2 kappa from XenoMouse hybridoma; The variable positions X2, X4, X6, X8 correspond to positions 42, 97, 14 (heavy) and 91 (light), where position one is the N-terminal amino acid; these numbers may not count on the entry with its leader; also called PTA-5026) VH: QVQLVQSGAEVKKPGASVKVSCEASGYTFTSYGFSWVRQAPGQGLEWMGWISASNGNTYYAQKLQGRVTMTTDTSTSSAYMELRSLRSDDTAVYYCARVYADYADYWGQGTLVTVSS VL: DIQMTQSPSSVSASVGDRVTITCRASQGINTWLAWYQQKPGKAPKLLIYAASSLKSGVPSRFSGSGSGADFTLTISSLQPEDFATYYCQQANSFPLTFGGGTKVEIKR ?
10.41

Please do the same for anti-c-Met monoclonal antibody 8.90.3 (antibody, V domains shown, Human IgG2 kappa) VH: EVQLVESGGGLVQPGGSLRLSCAASGFTFSRYSMNWVRQAPGKGLEWVSYISSRSSTIYYADSVKGRFTMSRDNAKNSLYMQMNSLRDEDTAVYYCGYGDYDYFDYWGQGTLVTVSS VL: DIQMTQSPSSVSASVGDRVIITCRASQGISSWLAWYQQKPGKAPKLLIYAASSLKSGVPSRFSGSGSGTDFTVTISSLQPEDFATYYCQQSNSLPWTFGQGTKVEIKR as well.
10.59

Okay, and anti-c-Met monoclonal antibody 8.70.2 (antibody, V domains shown, Human IgG2 kappa; also called hybridoma 8.70.2 (LN 15885); PTA-5028) VH: QLQLQESGPGLVKPSETLSLTCTVSGGSISSSSYYGGWIRQPPGKGLDWIGSIYYSGNTYYNPSLKSRVTISVDTSKNQFSLKLSSVTAADTAVYYCARHSWDYFDYWDQGTLVTVSS VL: DIQMTQSPSSVSASVGDRVTITCRASQGISSWLAWYQQKPGKAPKLLIYAASSLQSGVPSRFSGSGSGTDFTLTISSLQSEDFATYYCQQANSFPITFGPGTKVEIKR ?
10.39
